Listed next: entries and their corresponding abundance fitness.
B1: Triacylglycerol hydrolase DDHD2, residues 389 to 447; numbered along this chain, O94830 (parent)
chain: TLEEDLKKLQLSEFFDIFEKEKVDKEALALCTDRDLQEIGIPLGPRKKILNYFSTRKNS

variants of: B1; assay: abundance fitness (aPCA) (normalised: wild type 0, dead -1); higher = more abundant; growth selection in yeast, the domain comes from the species named; conditions: Homo sapiens

{"columns": ["polymer_sequence", "abundance fitness"],
 "data": [
  ["TLEEDLKKLQLSEFFDIFEKEKVDKEALALCTDRDLQEIGIPLGPWKKILNYFSTRKNS [R46W]", -1.27],
  ["TLEEDLKKLQLMEFFDIFEKEKVDKEALALCTDRDLQEIGIPLGPRKKILNYFSTRKNS [S12M]", -0.119],
  ["TLEEDLKKLQVSEFFDIFEKEKVDKEALALCTDRDLQEIGIPLGPRKKILNYFSTRKNS [L11V]", -0.401],
  ["TLEEDLIKLQLSEFFDIFEKEKVDKEALALCTDRDLQEIGIPLGPRKKILNYFSTRKNS [K7I]", -0.741],
  ["TLEEYLKKLQLSEFFDIFEKEKVDKEALALCTDRDLQEIGIPLGPRKKILNYFSTRKNS [D5Y]", -0.614]
]}
